Test: Clinical trial APD356-016: plasma and urine pharmacokinetics of lorcaserin, M1 and M5 after a 10 mg dose in subjects with renal impairment
Conditions: human, plasma, oral, 10 mg, AUC0-inf, 10 mg dose; Normal; actual BW groups
value-type: AUC0-inf (µg·h/mL)
Answers are plain numbers, in µg·h/mL.

Item C[C@H]1CNCCc2ccc(Cl)cc21 : provide AUC0-inf
0.569

====

Assay: Clinical trial APD356-016: plasma and urine pharmacokinetics of lorcaserin, M1 and M5 after a 10 mg dose in subjects with renal impairment
Details: human, plasma, oral, 10 mg, Cmax, 10 mg dose; Severe; ideal BW groups
value-type: Cmax (ng/mL)
Answers are plain numbers, in ng/mL.

Determine its reported Cmax: C[C@H]1CNCCc2ccc(Cl)cc21
26.4
